Reference source: PubChem BioAssay (NCI)

# System: SK-MEL-2 melanoma
# test protocol: NCI-60 one-dose screen, 48 h (100 = growth as untreated, 0 = no growth, -100 = all killed)
# condition details: 10 µM unless noted
This is part of a sample that, as a whole, favours compounds with a hit. Of some 83,000 tested, about 20% had one in any assay. Active and inactive are the calls of the source. Rule for the calls: active = growth percent below 10; inactive = the rest.
reported property: growth

Below, each entry is followed by its recorded growth result.
compound | growth
CC12CCC3C(=CCc4cc(O)ccc43)C1CCC2=O (configuration not stated) | 119% (inactive)
COC(=O)c1c(NC(=O)CSc2nnnn2-c2ccc(OC)cc2)sc(C)c1C | 18.8% (inactive)
COc1ccc(NC(=O)c2ccc(-c3ccccc3)cc2)c(C(N)=O)c1 | 99.6% (inactive)

Now examine the next entry.
Exercise: Name the recorded growth of the item Cc1ccc(C2=Nc3c(ccc4c(C)c(C)c(=O)oc34)OC2)cc1 in your answer.
Key: 95.8% (inactive)

###

# System: MOLT-4 leukemia
# test protocol: NCI-60 one-dose screen, 48 h (100 = growth as untreated, 0 = no growth, -100 = all killed)
# condition details: 10 µM unless noted
Compounds without any hit were thinned out: in the full panel of roughly 83,000, 20% have a hit.
reported property: growth (%)
Express it in %; write the number only.

Below, each entry is followed by its recorded growth result.
compound | value unit | growth
Nc1nc2c(nnn2Cc2ccc(Cl)c(Cl)c2)c(=O)[nH]1 | % | 93.8
COc1cccc(C=Nc2cc(C(C)C)c(O)cc2C)c1O | % | 98.2
O=C(c1ccc(Cl)cc1)c1ccc(Cl)cc1 | % | 106
O=c1ccn(C2CC=C(CO)O2)c(=O)[nH]1 (stereo not drawn) | % | 101

Exercise: System MOLT-4 leukemia. Read-out growth. Item NS(=O)(=O)c1cc2c(cc1Cl)NC=NS2(=O)=O . Report value.
Key: 103

Exercise: System MOLT-4 leukemia. Read-out growth. Item Clc1ccc2nc(CI)c(CI)nc2c1 . Report value.
Key: -27.4

Exercise: System MOLT-4 leukemia. Read-out growth. Item N#Cc1c(NC(=O)c2ccco2)[n+]([O-])c2ccccc2[n+]1[O-] . Report value.
Key: 85.3

Exercise: System MOLT-4 leukemia. Read-out growth. Item COc1ccc(CNC(=O)c2c(C)n([O-])c3cc(F)c(F)cc3[n+]2=O)cc1 . Report value.
Key: 97

###

# System: LOX IMVI melanoma
# test protocol: NCI-60 one-dose screen, 48 h (100 = growth as untreated, 0 = no growth, -100 = all killed)
# condition details: 10 µM unless noted
Compounds without any hit were thinned out: in the full panel of roughly 83,000, 20% have a hit. Activity calls are given as the source filed them. Rule for the calls: active = growth percent below 10; inactive = the rest.
reported property: growth

Below, each entry is followed by its recorded growth result.
molecule | growth
O=C1NC(=S)S/C1=C\c1cc(Br)ccc1O | 100% (inactive)
O=C(CNC(=O)c1cccc2ccccc12)Nc1ccccc1Cc1ccccc1 | 38.2% [5 µM] (inactive)
OC(c1ccccc1)C(NCc1ccccc1)c1ccccc1 (centres undefined) | 85.5% (inactive)

Now examine the next entry.
Exercise: Name the recorded growth of the item O=C1/C(=C\c2coc3ccccc3c2=O)c2ccccc2N1c1c(Cl)cccc1Cl in your answer.
Key: 37.1% (inactive)

###

# System: SN12C renal
# test protocol: NCI-60 one-dose screen, 48 h
# condition details: 10 µM unless noted
Compounds without any hit were thinned out: in the full panel of roughly 83,000, 20% have a hit. Active and inactive are the calls of the source. How the source made its calls: active means growth percent below 10; inactive means the rest.
Respond with a class label; see active, inactive

molecule | label
COc1cc(C2CC(C3C(=O)N(C)C(=O)N(C)C3=O)=NN2c2cc(Cl)cc(Cl)c2)cc(OC)c1OC (stereo not drawn) | inactive
CC(=O)Nc1c(Cl)cc2c(c1Cl)Cc1cc([N+](=O)[O-])ccc1-2 | inactive
COc1cc(-c2nnc(-c3nc(-c4cc(OC)c(OC)c(OC)c4)n4ccccc34)o2)ccc1N | inactive
O=c1sc2ncnc3ncn1c32 | inactive
O=C(O)c1ccc2cccnc2c1O | active
CC[C@@H](C)/C=C(C)/C=C/C(=O)c1c(O)c(-c2ccc(O)cc2)cn(OC2CC(=O)CCC(C)OC(=O)CC2O)c1=O (stereo partly drawn) | inactive

Exercise: Recorded call for Cc1ccc(-c2c3c(N)c4c(nc3nc3c2c(C)nn3-c2ccccc2)CCC4)cc1 ?
Key: inactive

Exercise: Recorded call for COc1cccc(-c2nc3cc(NC(=O)c4ccc(Cl)c(C#N)c4)ccc3o2)c1 ?
Key: inactive

Exercise: Recorded call for CC1(C)CC2(C)CC(=O)C1C(C(=O)O)C2C(=O)O (stereo not drawn) ?
Key: inactive

Exercise: Recorded call for O=C1C=CC(=O)N1c1ccccn1 ?
Key: inactive

Exercise: Recorded call for O=c1[nH]cc(Nc2cc(Cl)c3nonc3c2[N+](=O)[O-])c(=O)[nH]1 ?
Key: inactive

Exercise: Recorded call for CC(=O)Nc1ccc(C(=O)COc2cccc(/C=C3\CCc4ccccc4C3=O)c2)cc1 ?
Key: inactive

###

Recorded growth for the following molecules
# System: OVCAR-8 ovarian
# test protocol: NCI-60 one-dose screen, 48 h (100 = growth as untreated, 0 = no growth, -100 = all killed)
# condition details: 10 µM unless noted
# Protocol: Growth inhibition of the OVCAR-8 human tumor cell line is measured as a screen for anti-cancer activity. Cells are grown in 96 well plates and exposed to the test compound for 48 hours. Compounds are tested at a single concentration, which is 10^-5 M for most compounds. The reported endpoint is percent growth (GI% or GIPRCNT), where numbers from 0 - 100% represent growth inhibition, and numbers from -100% - 0 represent cell death. For example, a value of 40 represents 60% growth inhibition. […]
This is part of a sample that, as a whole, favours compounds with a hit. Of some 83,000 tested, about 20% had one in any assay. Active and inactive are the calls of the source. How the source made its calls: active means growth percent below 10; inactive means the rest.

molecule | reported property | result
COc1cc(-c2nc3sc4c(c3c(=O)[nH]2)CCCCCC4)cc(OC)c1OC | growth | 25.2% (inactive)

Exercise: Name the recorded growth of the item O=C(N/N=C/c1cccc([N+](=O)[O-])c1)c1ccc(Br)o1 in your answer.
Key: 39.4% (inactive)

Exercise: Name the recorded growth of the item O=C(C(=O)N1CCOCC1)c1cn(CCCn2cc(C(=O)C(=O)N3CCOCC3)c3ccccc32)c2ccccc12 in your answer.
Key: 104% (inactive)

Exercise: Name the recorded growth of the item O=C(O)CNC(=O)C1(N2C(=O)c3ccccc3C2=O)CCCC1 in your answer.
Key: 104% (inactive)

Exercise: Name the recorded growth of the item Nc1nc(Nc2ccccc2SSc2ccccc2Nc2nc(N)nc(-c3ccc(I)cc3)n2)nc(-c2ccc(I)cc2)n1 in your answer.
Key: 60.2% (inactive)

Exercise: Name the recorded growth of the item COc1cc(C2CC(c3ccc(C)cc3)=NN2C=O)ccc1OCCN(C)C (stereo not given) in your answer.
Key: 92.6% (inactive)

###

# System: M14 melanoma
# test protocol: NCI-60 one-dose screen, 48 h
# condition details: 10 µM unless noted
The panel holds about 83,000 compounds, 20% with a hit somewhere; the sample as a whole holds those more often. The source made the active and inactive calls. How the source made its calls: active means growth percent below 10; inactive means the rest.
Respond with a class label; see active, inactive

Worked cases, answers included:
compound string | assayed target | label
O=c1[nH]c(N2CCC(Cc3ccccc3)CC2)nc2sc3c(c12)CCCC3 | M14 melanoma | inactive
O=c1sc2ncnc3ncn1c32 | M14 melanoma | inactive
CCCCCc1c(C)[nH]c(/C=C2\N=C(c3ccc[nH]3)C=C2OCc2ccccc2)c1C | M14 melanoma | active
Cc1cc(C)c2c(N)c3cccc(C)c3nc2n1 | M14 melanoma | active
COc1cc(/C=C/C(=O)C(C(=O)/C=C/c2ccc(OC(=O)CCNc3nnc(C)s3)c(OC)c2)C(=O)CCNc2nnc(C)s2)ccc1OC(=O)CCNc1nnc(C)s1 | M14 melanoma | active

Exercise: Recorded call for CCOc1cc(/C=C/C(=O)C(C(=O)/C=C/c2ccc(OC(=O)CNc3nc4ccccc4[nH]3)c(OCC)c2)C(=O)CNc2nc3ccccc3[nH]2)ccc1OC(=O)CNc1nc2ccccc2[nH]1 ?
Key: active

###

# Tested on: CCRF-CEM leukemia
# test protocol: NCI-60 one-dose screen, 48 h
# condition details: 10 µM unless noted
This is part of a sample that, as a whole, favours compounds with a hit. Of some 83,000 tested, about 20% had one in any assay. Active and inactive are the calls of the source. How the source made its calls: active means growth percent below 10; inactive means the rest.
Respond with a class label; see active, inactive

compound | assayed target | label
CCOC(CNCc1cc(C)c2[nH]c3ccccc3c2c1C)OCC | CCRF-CEM leukemia | inactive

Exercise: Recorded call for Cc1cc2c(cc1C)[n+](Cc1ccc3ccccc3c1)cn2Cc1ccc2ccccc2c1 ?
Key: active

Exercise: Recorded call for COc1cc(NC(C)CCCN)c2nc(C)ccc2c1Oc1ccc(F)cc1 (stereo unspecified) ?
Key: inactive

Exercise: Recorded call for O=C(COc1ccc(/C=C2\Oc3ccc4ccccc4c3C2=O)cc1)c1ccc(Cl)cc1 ?
Key: active

Exercise: Recorded call for COc1cc(C2=NN(C=O)C(c3cccc(Nc4ccnc5cc(Cl)ccc45)c3)C2)cc(OC)c1OC (stereo unspecified) ?
Key: inactive

Exercise: Recorded call for O=C(NCCCl)NCCN1c2nc3ccccc3cc2Sc2cc3ccccc3nc21 ?
Key: inactive

Exercise: Recorded call for C[C@H](C(=O)N[C@@H](Cc1ccc(-c2ccccc2)cc1)C(=O)NC1CC(C)(C)N(C)C(C)(C)C1)c1ccc(-c2ccccc2)c(F)c1 ?
Key: active

Exercise: Recorded call for C[N+]1(C)C2CC[C@@H]1CC(OC(=O)C(O)c1ccccc1)C2 (stereo partly specified) ?
Key: inactive

Exercise: Recorded call for CC(C)=CCCC(C)c1ccc(C)c2c1OCN(CC1CCNCC1)C2 (stereo unspecified) ?
Key: inactive

Exercise: Recorded call for CCCCN=C(N)c1ccc(OCCSCCOc2ccc(C(N)=NCCCC)cc2)cc1 ?
Key: inactive

Exercise: Recorded call for Nc1ccc(N=Nc2ccccc2)cc1[N+](=O)[O-] ?
Key: inactive
